Reference for the values: paper PMC4522185

Assign solubility at 18 h to each entry below.
# procedureText: physchem
# particulars: pbs, pH 7.4, aqueous buffer
Give bare numbers, in µM.

Use these answered entries as a reference point.
>  <compound>
O=c1onc(/C=C/c2ccccc2)o1 [compound 25]

>  <unitsText>
µM

>  <solubility at 18 h>
12.3

$$$$
>  <compound>
O=c1oc(-c2cnccn2)ns1 [compound 2]

>  <unitsText>
µM

>  <solubility at 18 h>
35.1

$$$$
>  <compound>
O=c1oc(/C=C/c2ccccc2)ns1 [compound 17, (E)-5-Styryl-1,3,4-oxathiazol-2-one]

>  <unitsText>
µM

>  <solubility at 18 h>
19.1

$$$$

Note to self: solubility at 18 h recorded for COc1cccc(-c2nsc(=O)o2)c1 [compound 3] was 30.9
